- PROCEDURE SUMMARY: in vitro
- STUDY CONDITIONS: human, microsomes, pH 7.4
ENDPOINT NAME: half-life

>>> recorded_measurement("Cc1nccn1CCCCCCOc1cc2oc(=O)ccc2cc1O")
"> 5 h"
>>> recorded_measurement("Cc1nccn1CCCCCOc1cc2oc(=O)ccc2cc1O")
"> 5 h"
>>> recorded_measurement("Cc1nccn1CCCCOc1cc2oc(=O)ccc2cc1O")
"> 5 h"
>>> recorded_measurement("C[C@]12CC[C@H]3[C@@H](CCC4=CC(=O)CC[C@@]43C)[C@@H]1CC[C@@H]2O [testosterone, reference compound]")
"0.4 h"

* * *

- PROCEDURE SUMMARY: in vitro
- STUDY CONDITIONS: human, microsomes, pH 7.4
Recorded half-life by entry
ENDPOINT NAME: half-life

>>> recorded_measurement("Cc1nccn1CCCCCCOc1cc2oc(=O)ccc2cc1O")
"> 5 h"
>>> recorded_measurement("Cc1nccn1CCCCOc1cc2oc(=O)ccc2cc1O")
"> 5 h"
>>> recorded_measurement("Cc1nccn1CCCCCOc1cc2oc(=O)ccc2cc1O")
"> 5 h"
>>> recorded_measurement("O=c1ccc2ccc(O)cc2o1 [7-hydroxycoumarin, reference compound]")
"0.263 h"
